molecular target: GDP-bound KRAS wild-type protein (Homo sapiens); experiment: Binding to KRAS by surface plasmon resonance (SPR), dissociation constant KD; conditions: Single Cycle Kinetics, 1:1 binding model
Sequence (P01116 1-188 isoform P01116-2): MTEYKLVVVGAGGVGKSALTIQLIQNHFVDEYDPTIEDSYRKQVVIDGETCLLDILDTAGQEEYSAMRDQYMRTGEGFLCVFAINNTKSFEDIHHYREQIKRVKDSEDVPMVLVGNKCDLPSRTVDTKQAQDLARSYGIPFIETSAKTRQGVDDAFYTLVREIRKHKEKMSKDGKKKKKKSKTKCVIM
parameter: pKd
The meaning of pKd here: minus log10 of the concentration in molar units.

Sample records with pKd:
INSERT INTO results (mol_smiles, parameter, recorded_value) VALUES
  ('CC[C@H](C)[C@@H]1NC(=O)[C@H](CC2CCC2)N(C)C(=O)C[C@@H](C(=O)N(C)C)N(C)C(=O)[C@H](C2CCCC2)N(C)C(=O)C2(CCCC2)NC(=O)[C@@H]2CCCN2C(=O)[C@H](CCc2ccc(C(F)(F)F)c(Cl)c2)NC(=O)CN(C)C(=O)[C@H](Cc2ccc(C(F)(F)F)cc2)N2C[C@H](C)CC[C@@H](C2=O)N(C)C(=O)CN(C)C1=O', 'pKd', 10.04),
  ('CCO[C@@H]1C[C@H]2C(=O)NC3(CCC3)C(=O)N(C)[C@@H](C3CCCC3)C(=O)N(C)[C@H](C(=O)N(C)C)CC(=O)N(C)[C@@H](CC3CCCC3)C(=O)N[C@@H]([C@@H](C)CC)C(=O)N(C)CC(=O)N(C)[C@H]3CCCCCN(C3=O)[C@@H](Cc3ccc(C(F)(F)F)cc3)C(=O)N(C)CC(=O)N[C@@H](CCc3cc(F)c(C(F)(F)F)c(F)c3)C(=O)N2C1', 'pKd', 9.55),
  ('CCCN(C)C(=O)[C@@H]1CC(=O)N(C)[C@@H](C2CCC2)C(=O)N[C@@H]([C@@H](C)CC)C(=O)N(C)CC(=O)N(C)[C@H]2C/C=C\CCN(C2=O)[C@@H](Cc2ccc(C(F)(F)F)cc2)C(=O)N(C)CC(=O)N[C@@H](CCc2cc(F)c(C(F)(F)F)c(F)c2)C(=O)N2C[C@H](OCC)C[C@H]2C(=O)NC2(CCC2)C(=O)N(C)[C@@H](C2CCCC2)C(=O)N1C', 'pKd', 9.77),
  ('CC[C@H](C)[C@@H]1NC(=O)[C@H](CC)N(C)C(=O)C[C@@H](C(=O)N(C)C)N(C)C(=O)[C@H](C2CCCC2)N(C)C(=O)C2(CC(C)(C)C2)NC(=O)[C@@H]2C[C@@H](C)CN2C(=O)[C@H](CCc2ccc(C(F)(F)F)c(Cl)c2)NC(=O)CN(C)C(=O)[C@H](Cc2ccc(C)cc2)N2CC/C=C\C[C@@H](C2=O)N(C)C(=O)CN(C)C1=O', 'pKd', 10.00),
  ('CC[C@H](C)[C@@H]1NC(=O)[C@H](CC2CC2)N(C)C(=O)C[C@@H](C(=O)N2CCCC2)N(C)C(=O)[C@H](C2CCCC2)N(C)C(=O)C2(CCCC2)NC(=O)[C@@H]2C[C@@H](C(F)(F)F)CN2C(=O)[C@H](CCc2cc(F)c(C(F)(F)F)c(F)c2)NC(=O)CN(C)C(=O)[C@H](Cc2ccc(F)cc2)N2CC/C=C\C[C@@H](C2=O)N(C)C(=O)CN(C)C1=O', 'pKd', 9.40);

**Q:** Give GDP-bound KRAS wild-type protein (Homo sapiens) pKd for CCO[C@@H]1C[C@H]2C(=O)NC3(CCC3)C(=O)N(C)[C@@H](C(CC)CC)C(=O)N(C)[C@H](C(=O)N(C)C)CC(=O)N(C)[C@@H](COC)C(=O)N[C@@H]([C@@H](C)CC)C(=O)N(C)CC(=O)N(C)[C@H]3C/C=C\CCN(C3=O)[C@@H](Cc3ccc(C(F)(F)F)cc3)C(=O)N(C)CC(=O)N[C@@H](CCc3ccc(Cl)c(Cl)c3)C(=O)N2C1
**A:** 9.40
